Test system: LoVo (CCL-229) cells
Experiment: Tumor cell anti-proliferation assay (CTG assay)
Format: cell-based
Details: LoVo human colorectal cancer cells, 96 h, CellTiter-Glo
Doc: threshold 20 nM (exclusive). Items with IC50 beneath it return yes (1); others return no (0).

Hi there! Is IC50 for C[C@@H]1COCCN1c1cc(C2(S(C)(=O)=O)CC2)c2cnc(-c3ccn[nH]3)n2n1 [Example 30] below 20 nM, do you know?
no (0)

Please let me know if Cn1nccc1-c1cc(N2CC3CCC(C2)O3)nn2c(-c3ccn[nH]3)ncc12 [Example 78] shows IC50 below 20 nM.
no (0)

Does the reported IC50 of Cc1cc(-c2nsc3c(C4(C(N)=O)CCCCC4)cc(N4CCOC[C@H]4C)nc23)[nH]n1 [Example 88] stay below 20 nM?
yes (1)

Next:
Say whether its IC50 is strictly beneath 20 nM. Entry: C[C@@H]1COCCN1c1cc(N2CCCCS2(=O)=O)c2snc(-c3ccn[nH]3)c2n1 [Example 76]
no (0)

Does the reported IC50 of the following compound sit strictly below 20 nM? C[C@@H]1COCCN1c1cc(S(=O)(=O)C2CC2)c2snc(-c3ccn[nH]3)c2n1 [Example 75]
yes (1)

Check if IC50 falls below 20 nM for Cc1cc(-c2nsc3c(C(C)(C)S(C)(=O)=O)cc(N4CCOC[C@H]4C)nc23)[nH]n1 [Example 56] .
yes (1)

Given the entry Cc1nnn(C)c1-c1cc(N2CCOC[C@H]2C)nn2c(-c3ccn[nH]3)ncc12 [Example 33] , would its reported IC50 be below 20 nM?
no (0)

Regarding C[C@@H]1COCCN1c1cc(-c2ccnn2C)c2snc(-c3ccn[nH]3)c2n1 [Example 29] , kindly confirm whether its IC50 is beneath 20 nM.
yes (1)

Cited source: patent US20230295166A1
